# Test system: Mus musculus
# procedureSummary: Toxicity in PS mouse allografted with mouse P388 cells assessed as survival at 50 ug/kg after 4 days
# Format: organism-based
# conditions: in vivo, 0.05 mg/kg, 96 h
propertyLabel: Activity

Form: compound = COc1cc2cc(c1Cl)N(C)C(=O)C[C@H](OC(=O)CBr)[C@]1(C)O[C@H]1[C@H](C)[C@@H]1C[C@@](O)(NC(=O)O1)[C@H](OC)/C=C/C=C(\C)C2 ; Activity = Non-toxic

Form: compound = COc1cc2cc(c1Cl)N(C)C(=O)C[C@H](OC(=O)[C@H](C)N(C)C(C)=O)[C@]1(C)O[C@H]1[C@H](C)[C@@H]1C[C@@](O)(NC(=O)O1)[C@H](OC)/C=C/C=C(\C)C2 ; Activity = Non-toxic

Form: compound = CCCS[C@]12C[C@H](OC(=O)N1)[C@@H](C)[C@@H]1O[C@@]1(C)[C@@H](OC(=O)[C@H](C)N(C)C(C)=O)CC(=O)N(C)c1cc(cc(OC)c1Cl)C/C(C)=C/C=C/[C@H]2OC ; Activity = Non-toxic

---

# Tested on: Mus musculus
# procedureSummary: Toxicity in PS mouse allografted with mouse P388 cells assessed as change in body weight at 200 ug/kg relative to control
# Format: organism-based
# conditions: in vivo, 0.2 mg/kg
# note: exactly -2 g is not below, so it is n; use y for Activity strictly under it

Strictly below -2 g: is that where Activity of C/C=C/C(=O)O[C@H]1CC(=O)N(C)c2cc(cc(OC)c2Cl)C/C(C)=C/C=C/[C@@H](OC)[C@@]2(O)C[C@H](OC(=O)N2)[C@@H](C)[C@@H]2O[C@@]12C sits?
n

New cases:
Strictly below -2 g: is that where Activity of COc1cc2cc(c1Cl)NC(=O)/C=C/C(C)=C/[C@H](C)[C@@H]1C[C@@](O)(NC(=O)O1)[C@H](OC)/C=C/C=C(\C)C2 sits?
n

Strictly below -2 g: is that where Activity of CCCS[C@]12C[C@H](OC(=O)N1)[C@@H](C)[C@@H]1O[C@@]1(C)[C@@H](OC(=O)[C@H](C)N(C)C(C)=O)CC(=O)N(C)c1cc(cc(OC)c1Cl)C/C(C)=C/C=C/[C@H]2OC sits?
n

Strictly below -2 g: is that where Activity of CCC(=O)O[C@H]1CC(=O)N(C)c2cc(cc(OC)c2Cl)C/C(C)=C/C=C/[C@@H](OC)[C@@]2(O)C[C@H](OC(=O)N2)[C@@H](C)[C@@H]2O[C@@]12C sits?
y

Strictly below -2 g: is that where Activity of CCO[C@]12C[C@H](OC(=O)N1)[C@@H](C)[C@@H]1O[C@@]1(C)[C@@H](OC(=O)[C@H](C)N(C)C(=O)C(C)C)CC(=O)N(C)c1cc(cc(OC)c1Cl)C/C(C)=C/C=C/[C@H]2OC sits?
n

Strictly below -2 g: is that where Activity of CCO[C@]12C[C@H](OC(=O)N1)[C@@H](C)[C@@H]1O[C@@]1(C)[C@@H](OC(=O)[C@H](C)N(C)C(C)=O)CC(=O)N(C)c1cc(cc(OC)c1Cl)C/C(C)=C/C=C/[C@H]2OC sits?
n

---

# Test system: KB
# procedureSummary: Cytotoxicity against human KB cells
# Type: functional
# conditions: read-out: ED50 (the source's name)
Provide the recorded EC50 for the entries that follow.
Answers are plain numbers, in ng/mL.

Form: compound = COc1cc2cc(c1Cl)N(C)C(=O)C[C@H](OC(=O)CBr)[C@]1(C)O[C@H]1[C@H](C)[C@@H]1C[C@@](O)(NC(=O)O1)[C@H](OC)/C=C/C=C(\C)C2 ; EC50 = 0.44

Form: compound = COc1cc2cc(c1Cl)N(C)C(=O)C[C@H](OC(=O)[C@H](C)N(C)C(=O)C(C)C)[C@]1(C)O[C@H]1[C@H](C)[C@@H]1C[C@@](O)(NC(=O)O1)[C@H](OC)/C=C/C=C(\C)C2 ; EC50 = 0.0036

Form: compound = C/C=C/C(=O)O[C@H]1CC(=O)N(C)c2cc(cc(OC)c2Cl)C/C(C)=C/C=C/[C@@H](OC)[C@@]2(O)C[C@H](OC(=O)N2)[C@@H](C)[C@@H]2O[C@@]12C ; EC50 = 0.23

Form: compound = COc1cc2cc(c1Cl)N(C)C(=O)CC(O)C1(C)OC1C(C)C1CC(O)(NC(=O)O1)C(OC)/C=C/C=C(\C)C2 (stereo not given) ; EC50 = 190

Proceed to the following item.
Form: compound = CCCS[C@]12C[C@H](OC(=O)N1)[C@@H](C)[C@@H]1O[C@@]1(C)[C@@H](OC(=O)[C@H](C)N(C)C(C)=O)CC(=O)N(C)c1cc(cc(OC)c1Cl)C/C(C)=C/C=C/[C@H]2OC ; EC50 = 0.18
